From: PubChem BioAssay AID373

Biological target: Sphingosine 1-phosphate receptor 3 (Homo sapiens)
Test: human S1P3 receptor agonists, primary screen, cell-based, primary and confirmation, NFAT-BLA reporter (AID 373)
Conditions: S1P3 NFAT-BLA reporter cells, agonism, FRET ratio, at 4.5 µM, active compounds read high, relative to 1 µM S1P, basal subtracted
The whole screen tested about 60,000 compounds, of which about 60 (0.1%) were called active. Many of the other results were omitted from the sample, so actives are more common in it than they were.
property.label: activation (%)
One number for each entry, in %.

O=S(=O)(NCc1ccccn1)c1ccc(F)cc1    -1.2
COc1ccc(Cn2c(=O)sc3ccccc32)cc1OC    -0.4
Cc1nc(SCC(=O)Nc2cc(C)on2)c2c3c(sc2n1)CCCC3    -0.8

I would be grateful if you could share the reported activation for CCCCOc1ccc(-c2nnc(-c3ccco3)o2)cc1 .
-0.5
